The origin of these recorded values is PubChem BioAssay AID1963971.

The entries below come with measured viability, T/C values attached.
Test system: 953936-095-R-J2-PDC spheroids with HUVEC/MSC, viability
test-description: Anticancer human tumor 953936-095-R-J2-PDC patient-derived cervical squamous cell carcinoma cell line growth inhibition [PI3K]
assay-conditions: compound 0.00316 µM; stronger effect = lower value

In: Could you tell me which viability, T/C is on file for COc1c(OCCCN2CCOCC2)ccc2c3n(c(=NC(=O)c4cnc(N)nc4)nc12)CCN3 ?
Out: 85% [middle of 8 runs]

###

Test system: 953936-095-R-J2-PDC spheroids with HUVEC/MSC, viability
test-description: Anticancer human tumor 953936-095-R-J2-PDC cell line growth inhibition [PI3K];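 note: spheroids exposed to compounds for seven days before read-out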
assay-conditions: second compound 0.0316 µM; first compound 0.1 µM; stronger effect = lower value
readout-label: viability, T/C (%)
Supply the numeric figure in %, leaving out any unit text.

# compound, unit-symbol, viability, T/C
data = [
    ("CC1(C)CCC(Nc2ncc(C(F)(F)F)c(-c3c[nH]c4c(P(C)(C)=O)c(C#N)ccc34)n2)CN1 (stereo unspecified) + Cc1nc(NC(=O)N2CCCC2C(N)=O)sc1-c1ccnc(C(C)(C)C(F)(F)F)c1", "%", 50),
    ("C=CC(=O)N1CCN(c2nc(=O)n(-c3c(C)ccnc3C(C)C)c3nc(-c4c(O)cccc4F)c(F)cc23)C(C)C1 (stereo unspecified) + COc1c(OCCCN2CCOCC2)ccc2c3n(c(=NC(=O)c4cnc(N)nc4)nc12)CCN3", "%", 43.6),
    ("CC(C)NCC(C(=O)N1CCN(c2ncnc3c2C(C)CC3O)CC1)c1ccc(Cl)cc1 (stereo unspecified) + COc1c(OCCCN2CCOCC2)ccc2c3n(c(=NC(=O)c4cnc(N)nc4)nc12)CCN3", "%", 38.5),
    ("CC1(C)CCC(Nc2ncc(C(F)(F)F)c(-c3c[nH]c4c(P(C)(C)=O)c(C#N)ccc34)n2)CN1 (stereo unspecified) + COc1c(OCCCN2CCOCC2)ccc2c3n(c(=NC(=O)c4cnc(N)nc4)nc12)CCN3", "%", 22.6),
]

In: Field: viability, T/C (953936-095-R-J2-PDC spheroids with HUVEC/MSC, viability). Entry: C[C@@H](NC(=O)c1ncnc(N)c1Cl)c1ncc(C(=O)Nc2cc(C(F)(F)F)c(Cl)cn2)s1 + CC(Nc1ncnc2nc[nH]c12)c1cc2cccc(Cl)c2c(=O)n1-c1ccccc1
Out: 98.3

In: Field: viability, T/C (953936-095-R-J2-PDC spheroids with HUVEC/MSC, viability). Entry: C[C@@H](NC(=O)c1ncnc(N)c1Cl)c1ncc(C(=O)Nc2cc(C(F)(F)F)c(Cl)cn2)s1 + CC(Nc1ccc2c(c1)OCCn1cc(N3C(=O)OCC3C(F)F)nc1-2)C(N)=O
Out: 74.3

In: Field: viability, T/C (953936-095-R-J2-PDC spheroids with HUVEC/MSC, viability). Entry: CNC(=O)c1ccc(N2C(=S)N(c3ccc(C#N)c(C(F)(F)F)c3)C(=O)C2(C)C)cc1F + COc1c(OCCCN2CCOCC2)ccc2c3n(c(=NC(=O)c4cnc(N)nc4)nc12)CCN3
Out: 43

In: Field: viability, T/C (953936-095-R-J2-PDC spheroids with HUVEC/MSC, viability). Entry: CC(C)NCC(C(=O)N1CCN(c2ncnc3c2C(C)CC3O)CC1)c1ccc(Cl)cc1 (stereo unspecified) + CC(Nc1ccc2c(c1)OCCn1cc(N3C(=O)OCC3C(F)F)nc1-2)C(N)=O
Out: 76

In: Field: viability, T/C (953936-095-R-J2-PDC spheroids with HUVEC/MSC, viability). Entry: C[C@@H](NC(=O)c1ncnc(N)c1Cl)c1ncc(C(=O)Nc2cc(C(F)(F)F)c(Cl)cn2)s1 + COc1c(OCCCN2CCOCC2)ccc2c3n(c(=NC(=O)c4cnc(N)nc4)nc12)CCN3
Out: 50

In: Field: viability, T/C (953936-095-R-J2-PDC spheroids with HUVEC/MSC, viability). Entry: CC(Cn1ccc(-c2ccc(C#N)c(Cl)c2)n1)NC(=O)c1cc(C(C)O)[nH]n1 (stereo unspecified) + COc1c(OCCCN2CCOCC2)ccc2c3n(c(=NC(=O)c4cnc(N)nc4)nc12)CCN3
Out: 40.9

In: Field: viability, T/C (953936-095-R-J2-PDC spheroids with HUVEC/MSC, viability). Entry: CC(Cn1ccc(-c2ccc(C#N)c(Cl)c2)n1)NC(=O)c1cc(C(C)O)[nH]n1 (stereo unspecified) + CC(Nc1ncnc2nc[nH]c12)c1cc2cccc(Cl)c2c(=O)n1-c1ccccc1
Out: 100

###

The entries below come with measured viability, T/C values attached.
Test system: 953936-095-R-J2-PDC spheroids with HUVEC/MSC, viability
test-description: Anticancer human tumor 953936-095-R-J2-PDC cell line growth inhibition [PI3K];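 note: spheroids exposed to compounds for seven days before read-out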
assay-conditions: second compound 0.01 µM; first compound 0.1 µM; stronger effect = lower value
Supply the numeric figure in %, leaving out any unit text.

Use these answered entries as a reference point.
# compound, measured-on, viability, T/C [%]
records = [
    ("C[C@@H](NC(=O)c1ncnc(N)c1Cl)c1ncc(C(=O)Nc2cc(C(F)(F)F)c(Cl)cn2)s1 + CC(Nc1ccc2c(c1)OCCn1cc(N3C(=O)OCC3C(F)F)nc1-2)C(N)=O", "953936-095-R-J2-PDC spheroids with HUVEC/MSC, viability", 89.3),
    ("CCN1CCN(Cc2ccc(Nc3ncc(F)c(-c4cc(F)c5nc(C)n(C(C)C)c5c4)n3)nc2)CC1 + CC(Nc1ccc2c(c1)OCCn1cc(N3C(=O)OCC3C(F)F)nc1-2)C(N)=O", "953936-095-R-J2-PDC spheroids with HUVEC/MSC, viability", 83.3),
    ("Cn1ncnc1[C@H]1c2n[nH]c(=O)c3cc(F)cc(c23)N[C@@H]1c1ccc(F)cc1 + COc1c(OCCCN2CCOCC2)ccc2c3n(c(=NC(=O)c4cnc(N)nc4)nc12)CCN3", "953936-095-R-J2-PDC spheroids with HUVEC/MSC, viability", 68.2),
    ("CCCS(=O)(=O)Nc1ccc(F)c(C(=O)c2c[nH]c3ncc(-c4ccc(Cl)cc4)cc23)c1F + COc1c(OCCCN2CCOCC2)ccc2c3n(c(=NC(=O)c4cnc(N)nc4)nc12)CCN3", "953936-095-R-J2-PDC spheroids with HUVEC/MSC, viability", 72.5),
]

Now consider the entry below.
In: Could you tell me which viability, T/C is on file for CC(=O)c1c(C)c2cnc(Nc3ccc(N4CCNCC4)cn3)nc2n(C2CCCC2)c1=O + CC(Nc1ccc2c(c1)OCCn1cc(N3C(=O)OCC3C(F)F)nc1-2)C(N)=O ?
Out: 92

###

System: 953936-095-R-J2-PDC spheroids with HUVEC/MSC, viability
test-description: Anticancer human tumor 953936-095-R-J2-PDC cell line growth inhibition [PI3K]; active = viability on the fitted dose curve at most 10% of control; inactive = the rest;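 note: spheroids exposed to compounds for seven days before read-out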
assay-conditions: second compound 0.1 µM; first compound 0.1 µM
One label from this list, please: active, inactive

# compound, answer-label
records = [
    ("CNC(=O)c1ccc(N2C(=S)N(c3ccc(C#N)c(C(F)(F)F)c3)C(=O)C2(C)C)cc1F + Cc1nc(NC(=O)N2CCCC2C(N)=O)sc1-c1ccnc(C(C)(C)C(F)(F)F)c1", "inactive"),
    ("CNC(=O)c1ccc(N2C(=S)N(c3ccc(C#N)c(C(F)(F)F)c3)C(=O)C2(C)C)cc1F + COc1c(OCCCN2CCOCC2)ccc2c3n(c(=NC(=O)c4cnc(N)nc4)nc12)CCN3", "inactive"),
]

Turning now to a further record.
In: Identify the outcome logged in this assay for the compound shown: CC(C)n1nc(-c2ccc3oc(N)nc3c2)c2c(N)ncnc21 + COc1c(OCCCN2CCOCC2)ccc2c3n(c(=NC(=O)c4cnc(N)nc4)nc12)CCN3
Out: active

###

Test system: 953936-095-R-J2-PDC spheroids with HUVEC/MSC, viability
test-description: Anticancer human tumor 953936-095-R-J2-PDC cell line growth inhibition [PI3K];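 note: spheroids exposed to compounds for seven days before read-out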
assay-conditions: second compound 0.0316 µM; first compound 10 µM; stronger effect = lower value
The entries below come with measured viability, T/C values attached.
Supply the numeric figure in %, leaving out any unit text.

Use these answered entries as a reference point.
# molecule, measured-on, unit-symbol, viability, T/C
data = [
    ("Cn1ncc(Cl)c1-c1cc(C(=O)NC(CN)Cc2cccc(F)c2)sc1Cl (stereo unspecified) + CC(Nc1ncnc2nc[nH]c12)c1cc2cccc(Cl)c2c(=O)n1-c1ccccc1", "953936-095-R-J2-PDC spheroids with HUVEC/MSC, viability", "%", 12),
    ("C[C@@H](NC(=O)c1ncnc(N)c1Cl)c1ncc(C(=O)Nc2cc(C(F)(F)F)c(Cl)cn2)s1 + CC(Nc1ccc2c(c1)OCCn1cc(N3C(=O)OCC3C(F)F)nc1-2)C(N)=O", "953936-095-R-J2-PDC spheroids with HUVEC/MSC, viability", "%", 85.2),
    ("CC1(C)CCC(Nc2ncc(C(F)(F)F)c(-c3c[nH]c4c(P(C)(C)=O)c(C#N)ccc34)n2)CN1 (stereo unspecified) + COc1c(OCCCN2CCOCC2)ccc2c3n(c(=NC(=O)c4cnc(N)nc4)nc12)CCN3", "953936-095-R-J2-PDC spheroids with HUVEC/MSC, viability", "%", 1.19),
    ("CC(Cn1ccc(-c2ccc(C#N)c(Cl)c2)n1)NC(=O)c1cc(C(C)O)[nH]n1 (stereo unspecified) + CC(Nc1ccc2c(c1)OCCn1cc(N3C(=O)OCC3C(F)F)nc1-2)C(N)=O", "953936-095-R-J2-PDC spheroids with HUVEC/MSC, viability", "%", 82.6),
]

In: Could you tell me which viability, T/C is on file for Cn1nccc1Nc1nccc(-c2ccn(C(CO)c3ccc(Cl)c(F)c3)c(=O)c2)n1 (stereo unspecified) + CC(Nc1ncnc2nc[nH]c12)c1cc2cccc(Cl)c2c(=O)n1-c1ccccc1 ?
Out: 80.1

In: Could you tell me which viability, T/C is on file for CC1(C)CCC(CN2CCN(c3ccc(C(=O)NS(=O)(=O)c4ccc(NCC5CCOCC5)c([N+](=O)[O-])c4)c(Oc4cnc5[nH]ccc5c4)c3)CC2)=C(c2ccc(Cl)cc2)C1 + CC(Nc1ccc2c(c1)OCCn1cc(N3C(=O)OCC3C(F)F)nc1-2)C(N)=O ?
Out: 44

In: Could you tell me which viability, T/C is on file for Cn1ncc(Cl)c1-c1cc(C(=O)NC(CN)Cc2cccc(F)c2)sc1Cl (stereo unspecified) + Cc1nc(NC(=O)N2CCCC2C(N)=O)sc1-c1ccnc(C(C)(C)C(F)(F)F)c1 ?
Out: 12.8

In: Could you tell me which viability, T/C is on file for CC(Cn1ccc(-c2ccc(C#N)c(Cl)c2)n1)NC(=O)c1cc(C(C)O)[nH]n1 (stereo unspecified) + COc1c(OCCCN2CCOCC2)ccc2c3n(c(=NC(=O)c4cnc(N)nc4)nc12)CCN3 ?
Out: 41.1

In: Could you tell me which viability, T/C is on file for C#Cc1c(F)ccc2cc(O)cc(-c3ncc4c(N5CC6CCC(C5)N6)nc(OCC56CCCN5CC(F)C6)nc4c3F)c12 (stereo unspecified) + COc1c(OCCCN2CCOCC2)ccc2c3n(c(=NC(=O)c4cnc(N)nc4)nc12)CCN3 ?
Out: 19.6

In: Could you tell me which viability, T/C is on file for C[C@@H](NC(=O)c1ncnc(N)c1Cl)c1ncc(C(=O)Nc2cc(C(F)(F)F)c(Cl)cn2)s1 + CC(Nc1ncnc2nc[nH]c12)c1cc2cccc(Cl)c2c(=O)n1-c1ccccc1 ?
Out: 97.2

In: Could you tell me which viability, T/C is on file for C[C@@H](NC(=O)c1ncnc(N)c1Cl)c1ncc(C(=O)Nc2cc(C(F)(F)F)c(Cl)cn2)s1 + COc1c(OCCCN2CCOCC2)ccc2c3n(c(=NC(=O)c4cnc(N)nc4)nc12)CCN3 ?
Out: 48.7
